All values here come from patent US12606556B2.

Target: TYK2-JH2 (aa 575-869, in-house) protein (Homo sapiens, UniProt P29597)
Construct: TYK2-JH2 (aa 575-869, in-house) protein; made in house
Sequence (P29597 575-869): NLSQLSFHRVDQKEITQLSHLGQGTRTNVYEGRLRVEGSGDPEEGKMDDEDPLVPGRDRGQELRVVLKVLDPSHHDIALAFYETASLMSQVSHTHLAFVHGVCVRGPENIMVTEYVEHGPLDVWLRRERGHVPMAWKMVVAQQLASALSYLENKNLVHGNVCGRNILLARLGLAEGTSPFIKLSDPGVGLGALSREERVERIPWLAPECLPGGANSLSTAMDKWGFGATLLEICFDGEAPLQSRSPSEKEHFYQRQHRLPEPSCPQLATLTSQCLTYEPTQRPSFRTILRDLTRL
Assay: TYK2-JH2 biochemical assay (HTRF, blocking of TYK2-JH2 protein with its probe)
Type: binding
Conditions: TYK2-JH2 vs JAK1-JH2 biochemical IC50
QUANTITY KIND: Biochemical assay Selectivity fold (TYK2/JAK1) (fold)
Give the value, in units of fold, as a plain number.

[
  {
    "MOLECULE": "CNC(=O)c1nnc(NC(=O)C2CC2)cc1Nc1nc2c(OC)cc(N3CCC3)cn2n1",
    "UNIT DESCRIPTOR": "fold",
    "READOUT NUMBER": 2
  },
  {
    "MOLECULE": "CNC(=O)c1nnc(NC(=O)C2CC2)cc1Nc1nc2ccc(N3CCC(N4CC(F)(F)C4)CC3)cn2n1",
    "UNIT DESCRIPTOR": "fold",
    "READOUT NUMBER": 71
  },
  {
    "MOLECULE": "CNC(=O)c1nnc(NC(=O)C2CC2)cc1Nc1nc2ccc(C3CN(C(C)=O)C3)cn2n1",
    "UNIT DESCRIPTOR": "fold",
    "READOUT NUMBER": 32
  }
]

IN: For the molecule CNC(=O)c1nnc(NC(=O)C2CC2)cc1Nc1nc2ccc(N3CC(F)(COC)C3)cn2n1 , what Biochemical assay Selectivity fold (TYK2/JAK1) is on record?
OUT: 35

IN: What value of Biochemical assay Selectivity fold (TYK2/JAK1) has been reported for the following molecule? CNC(=O)c1nnc(NC(=O)C2CC2)cc1Nc1nc2ccc(C3CN(S(C)(=O)=O)C3)cn2n1
OUT: 40

IN: Value lookup for Biochemical assay Selectivity fold (TYK2/JAK1); key = CNC(=O)c1nnc(NC(=O)C2CC2)cc1Nc1nc2ccc(N3CCC3)cn2n1 [Example E1]
OUT: 34

IN: // query Biochemical assay Selectivity fold (TYK2/JAK1) value for entry CNC(=O)c1nnc(NC(=O)C2CC2)cc1Nc1nc2ccc(N3CC(N(C)S(C)(=O)=O)C3)cn2n1
OUT: 22

IN: // lookup Biochemical assay Selectivity fold (TYK2/JAK1) for CNC(=O)c1nnc(NC(=O)C2CC2)cc1Nc1nc2ccc(N3CC(F)(F)C3)cn2n1
OUT: 20

IN: For the molecule CNC(=O)c1nnc(NC(=O)C2CC2)cc1Nc1nc2ccc(N3CCC3CO)cn2n1 (stereo not shown) , what Biochemical assay Selectivity fold (TYK2/JAK1) is on record?
OUT: 25

IN: For the molecule CNC(=O)c1nnc(NC(=O)C2CC2)cc1Nc1nc2ccc(N3CCC(N4CCC4)CC3)cn2n1 , what Biochemical assay Selectivity fold (TYK2/JAK1) is on record?
OUT: 32

IN: Biochemical assay Selectivity fold (TYK2/JAK1) lookup needed for [2H]C([2H])([2H])NC(=O)c1nnc(NC(=O)C2CC2)cc1Nc1nc2ccc(N3CCC3)cn2n1 , thanks.
OUT: 34

IN: # get_value(readout='Biochemical assay Selectivity fold (TYK2/JAK1)', item= CNC(=O)c1nnc(NC(=O)C2CC2)cc1Nc1nc2c(F)cc(N3CCC3)cn2n1 )
OUT: 20

IN: Any idea what its Biochemical assay Selectivity fold (TYK2/JAK1) is? The molecule is CNC(=O)c1nnc(NC(=O)C2CC2)cc1Nc1nc2c(C)cc(N3CCC3)cn2n1
OUT: 17

IN: So what does the record say about Biochemical assay Selectivity fold (TYK2/JAK1) for CNC(=O)c1nnc(NC(=O)C2CC2)cc1Nc1nc2ccc(N3CCC3COC)cn2n1 (stereo not shown) ?
OUT: 36

IN: Field request: Biochemical assay Selectivity fold (TYK2/JAK1) | item: CNC(=O)c1nnc(NC(=O)C2CC2)cc1Nc1nc2ccc(N3CC(C)(N(C)C)C3)cn2n1
OUT: 10

IN: I am curious: what Biochemical assay Selectivity fold (TYK2/JAK1) value has been reported for CNC(=O)c1nnc(NC(=O)C2CC2)cc1Nc1nc2ccccc2[nH]1 ?
OUT: 2.6
